System: pphz1-lux in WT P. aeruginosa
Assay: P. aeruginosa pphz1-lux bioluminescent reporter assay
Format: cell-based, Pseudomonas aeruginosa PA14
Details: Pseudomonas aeruginosa, PA14, read-out: IC50 PA14
What IC50 was measured for each of the following?

Could you report IC50 for every entry in the following list?
1. Cc1nn(-c2ccccc2)c(-n2cccc2)c1C(=O)N1CCC(C(=O)NCCc2ccccc2)CC1 [Compound B3]
2. Cc1noc(CN2CCCC(CCC(=O)Nc3ccc(C(F)(F)F)cc3)C2)n1 (stereo not drawn) [Compound C11]
3. Oc1cc(CN2CCC(CCn3cccn3)CC2)nc2ccc(F)cc12 [Compound C9]
4. N#Cc1ccc(NCC2CCC3(COCCN(Cc4ccccc4OC(F)F)C3)O2)nc1 (stereo not drawn) [Compound A8]
5. O=S(=O)(c1ccc(-c2cc(C(F)(F)F)n[nH]2)s1)N1CC=C(c2ccccc2)CC1 [Compound B6]
6. N#Cc1cnc(SCC(=O)Nc2ccc(Cl)c(Br)c2)nc1N [Compound C7]

2 µM
2.8 µM
7.6 µM
0.8 µM
0.4 µM
2.4 µM

Could you report IC50 for every entry in the following list?
1. CC(C)Oc1ccc(N2CC(C(=O)Nc3cccc(Cl)c3Cl)CC2=O)cc1 (stereo not drawn) [Compound B2]
2. CC(C)C(C(=O)O)N1C(=O)C(=Cc2cccc(Br)c2)SC1=S (stereo not drawn) [Compound E6]
3. N#CCc1ccc(NC(=O)CNc2ccc(C(F)(F)F)cc2)cc1 [Compound D2]
4. O=C(Cn1cnc2c(oc3ccccc32)c1=O)N1CCC(Cc2ccccc2)CC1 [Compound B12]
5. O=C(CN1CCC(c2nc(-c3cccc(F)c3)no2)CC1)Nc1ccccc1 [Compound B15]

1: 4.9 µM; 2: 9.7 µM; 3: 2.3 µM; 4: 10.5 µM; 5: 8.6 µM

Could you report IC50 for every entry in the following list?
1. O=C(c1csc2nc(-c3ccc(F)cc3)cn12)N1CCN(c2ccccc2F)CC1 [Compound E3]
2. COc1ccc(Cl)cc1C(=O)NCC(O)C1CCCCC1 (stereo not drawn) [Compound D3]
3. Cc1cc(Br)ccc1OCCn1cnc2ccccc2c1=O [Compound D4]
4. O=C(Nc1ccc(Cl)c(Cl)c1)c1ccc(=O)n(Cc2cccc(F)c2)n1 [Compound E5]
5. O=C(NCc1ccc(OC(F)F)cc1)c1ccc(C2SCCS2)cc1 [Compound D6]
6. N#Cc1cccc(CNCC2Cn3nnc(-c4ccccc4)c3CO2)c1 (stereo not drawn) [Compound A9]

1. 5 µM
2. 8.2 µM
3. 1.1 µM
4. 2.3 µM
5. 0.53 µM
6. 38 µM

Suppose we examine the compound CC(=O)c1cc(-c2ccccc2)n(CC(=O)Nc2nc3ccc(C)cc3s2)c1C [Compound B14] ; what IC50 value has been reported?
11.4 µM
